target_or_test_system: human TNF-alpha (Homo sapiens, UniProt P01375)
Construct: purchased R & D Diagnostics
Sequence (P01375 77-233 limits assumed): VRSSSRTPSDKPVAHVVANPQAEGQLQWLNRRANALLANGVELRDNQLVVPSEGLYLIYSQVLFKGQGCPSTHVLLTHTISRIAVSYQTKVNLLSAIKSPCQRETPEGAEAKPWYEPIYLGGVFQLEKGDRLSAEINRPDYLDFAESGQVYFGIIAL
test_name: Apoptosis induced by human TNF-alpha on murine L929 cells (MTT survival)
Assay type: cell-based
test_settings: compound 10 μM, human TNF-alpha 0.150 ng/ml, 24 hours, % survival based on control cells without TNF
Label label 1 when % Inhibition 10 μM is strictly below 50%; otherwise label label 0.

structure_notation | qualitative_label
COc1ccc(S(=O)(=O)Nc2cc3c(C(C)=O)c(C)oc3cc2C)cc1 | label 0
COC(=O)c1c(C)oc2ccc(NS(=O)(=O)c3ccc(C)cc3)cc12 | label 1
Cc1ccc(CN(CC(=O)N2CCN(c3ccc(F)cc3)CC2)S(=O)(=O)c2ccccc2)cc1 | label 1
Cc1ccc(S(=O)(=O)N(CC(=O)N2CCN(Cc3ccccc3)CC2)c2ccc(C)c(C)c2)cc1 | label 0
CCOc1ccc(S(=O)(=O)Nc2cc3c(C(C)=O)c(C)oc3c3ccccc23)cc1 | label 0
COc1ccc(S(=O)(=O)N(CC(=O)N2CCN(c3ccccc3OC)CC2)Cc2ccccc2)cc1C | label 0
COc1ccccc1N1CCN(C(=O)CN(Cc2ccccc2)S(=O)(=O)c2ccc(Br)cc2)CC1 | label 0

###

target_or_test_system: human TNF-alpha (Homo sapiens, UniProt P01375)
Construct: purchased R & D Diagnostics
test_name: Apoptosis induced by human TNF-alpha on murine L929 cells (MTT survival)
Assay type: cell-based
test_settings: compound 10 μM, human TNF-alpha 0.150 ng/ml, 24 hours, % survival based on control cells without TNF
Method: The compounds are dissolved in DMSO to be used in vitro or in vivo by oral route, and in Cremophor® for their use in vivo by intraperitoneal route. The cells were cultured in DMEM medium with 10% fcetal calf serum added. […] The absorbance was measured at 570 nm using a BMG Fluostar microplate reader. The inhibitory activity of the products was expressed as a calculated % survival based on the control cells without the addition of TNF.

molecule | % Inhibition 10 μM, %
Cc1ccc(S(=O)(=O)N(CC(=O)N2CCN(Cc3ccccc3)CC2)c2ccccc2C)cc1 | 34.6
COc1ccccc1N1CCN(C(=O)CN(Cc2ccccc2)S(=O)(=O)c2ccc(Cl)cc2)CC1 | 67.4
COC(=O)c1c(C)oc2ccc(NS(=O)(=O)c3ccc(OC)cc3)cc12 | 57.51
COc1ccccc1N1CCN(C(=O)CN(Cc2ccc(F)cc2)S(=O)(=O)c2ccc(Cl)cc2)CC1 | 53.6
COc1ccc(OC)c(N(CC(=O)Nc2cccc(C(C)=O)c2)S(=O)(=O)c2ccc(C)cc2)c1 | 42.26
Cc1ccc(S(=O)(=O)N(CC(=O)N2CCN(Cc3ccccc3)CC2)c2cc(C)cc(C)c2)cc1 | 35.5
COc1ccc(S(=O)(=O)N(CC(=O)N2CCN(c3ccccc3F)CC2)Cc2ccccc2)cc1 | 32.8
Cc1ccc(S(=O)(=O)N(CC(=O)N2CCC(Cc3ccccc3)CC2)c2ccc(F)cc2)cc1 | 34.8
Cc1ccc(-c2nnc(NCc3ccccc3)c3ccccc23)cc1S(=O)(=O)NCC1CCCO1 (stereo not shown) | 44.74
COc1ccccc1N1CCN(C(=O)CN(Cc2ccccc2)S(=O)(=O)c2ccc(F)cc2)CC1 | 44.7
COc1ccc(NC(=O)CN(Cc2cccc(Cl)c2)S(=O)(=O)c2ccc(C)cc2)c(OC)c1 | 52.4
COc1ccc(S(=O)(=O)N(CC(=O)N2CCN(c3ccccc3)CC2)c2ccc(C)cc2)cc1OC | 36.8
COc1ccc(S(=O)(=O)N(CC(=O)N2CCc3ccccc3C2)c2cc(C)cc(C)c2)cc1OC | 38.4
COc1ccc(S(=O)(=O)N(CC(=O)N2CCN(c3ccc(F)cc3)CC2)Cc2ccccc2)cc1OC | 33.6
CC1CCN(C(=O)CN(Cc2ccc(Cl)c(Cl)c2)S(=O)(=O)c2ccc(Cl)cc2)CC1 | 45.6
Cc1c(Cl)cccc1N(CC(=O)N1CCN(Cc2ccccc2)CC1)S(=O)(=O)c1ccccc1 | 44.8
